experiment: Permeability and efflux ratio of saquinavir across Caco-2 cell monolayers
Assay type: in vitro ADME
cond: human, pH 7.4; Papp B-A/Papp A-B, Caco-2 monolayer
Procedure: Caco-2 cells (ATCC, Manassas, Va.) were kindly provided by Dr. Gunaje Jayarama (Department of Pharmaceutical Sciences, South Dakota State University, Brookings, S. Dak.) at passage #4. […] The permeability of saquinavir and saquinavir loaded ZLF nanoparticles were studied across Caco-2 cell monolayers in an absorptive direction apical to basolateral (AP-BL) or secretory direction basolateral to apical (BL-AP). […] TEER was calculated as follows: […]
recorded endpoint: efflux ratio at 3 h, 20 μM

**Q:** What value of efflux ratio at 3 h, 20 μM has been recorded for this entry: CC(C)(C)NC(=O)[C@@H]1C[C@@H]2CCCC[C@@H]2CN1C[C@@H](O)[C@H](Cc1ccccc1)NC(=O)[C@H](CC(N)=O)NC(=O)c1ccc2ccccc2n1
**A:** 16.7
